FYI, the data here is from patent US8889696B2.

Below, each entry is listed alongside its reported melting point.

The cases that follow already have their melting point on record.
{"smiles_notation": "Cn1c(=O)c(S(=O)(=O)c2ccccc2)cc2cnc(Nc3ccc4[nH]ccc4c3)nc21", "melting point": "340 to 344 °C"}
{"smiles_notation": "CCCn1c(=O)c(S(=O)(=O)c2ccccc2)cc2cnc(Nc3cccc4[nH]ccc34)nc21", "melting point": "260 to 261 °C"}
{"smiles_notation": "Cc1ccc(S(=O)(=O)c2cc3cnc(Nc4cccc5[nH]ccc45)nc3n(C)c2=O)cc1", "melting point": "295 to 300 °C"}
{"smiles_notation": "Cn1c(=O)c(S(=O)(=O)c2ccccc2)cc2cnc(Nc3ccc4ncccc4c3)nc21", "melting point": "348 to 350 °C"}
{"smiles_notation": "O=c1c(S(=O)(=O)c2ccccc2)cc2cnc(Nc3ccc4[nH]ccc4c3)nc2n1C1CCCC1", "melting point": "272 to 273 °C"}
{"smiles_notation": "Cc1ccc(S(=O)(=O)c2cc3cnc(Nc4ccc5[nH]ccc5c4)nc3n(C)c2=O)cc1", "melting point": "310 to 314 °C"}
{"smiles_notation": "CSc1ncc2cc(S(=O)(=O)c3ccccc3)c(=O)[nH]c2n1", "melting point": "280 °C (dec.)"}
{"smiles_notation": "CC(=O)N1CCN(c2ncc3cc(S(=O)(=O)c4ccc(Cl)cc4)c(=O)n(C)c3n2)CC1", "melting point": "264 to 268 °C"}

Now look at this entry.
[Q] Consider the compound `O=c1c(S(=O)(=O)c2ccc(Cl)cc2)cc2cnc(Nc3ccc(N4CCOCC4)cc3)nc2n1C1CCCCC1` and give its measured melting point.
[A] 329 to 331 °C
